So I've got a bunch of binders here, and I need their IC50 of enzyme inhibition values.
Target: Hepatocyte Growth Factor Activator (HGFA) serine protease domain, N-terminal His-tag, recombinant (Homo sapiens (Human)) (UniProt Q04756)
Primed or numbered codes have the meaning given here. *: point of attachment. ketothiazole = C-terminal ketothiazole (kt), c1csc(*)n1; kt = C-terminal ketothiazole, c1csc(*)n1; kt″ = ketothiazole, c1csc(*)n1
Numbers only, in nM.

Here are 5 binders together with their reported answers.
BINDER	IC50 of enzyme inhibition [nM]
Ac-SKFR-kt (SMILES CC(=O)N[C@@H](CO)C(=O)N[C@@H](CCCCN)C(=O)N[C@@H](Cc1ccccc1)C(=O)N[C@@H](CCCNC(=N)N)C(=O)c1nccs1) [Ac-SKFR(SEQ ID NO: 13)-kt]	520
Ac-WRLR-kt (SMILES CC(=O)N[C@@H](Cc1c[nH]c2ccccc12)C(=O)N[C@@H](CCCNC(=N)N)C(=O)N[C@@H](CC(C)C)C(=O)N[C@@H](CCCNC(=N)N)C(=O)c1nccs1) [Ac-WRLR(SEQ ID NO: 9)-kt]	275
Ac-SWLR-kt (SMILES CC(=O)N[C@@H](CO)C(=O)N[C@@H](Cc1c[nH]c2ccccc12)C(=O)N[C@@H](CC(C)C)C(=O)N[C@@H](CCCNC(=N)N)C(=O)c1nccs1) [Ac-SWLR(SEQ ID NO: 17)-kt]	435
Ac-SRLR-kt (SMILES CC(=O)N[C@@H](CO)C(=O)N[C@@H](CCCNC(=N)N)C(=O)N[C@@H](CC(C)C)C(=O)N[C@@H](CCCNC(=N)N)C(=O)c1nccs1) [Ac-SRLR(SEQ ID NO: 15)-kt]	303
Ac-KFLR-ketothiazole (SMILES CC(=O)N[C@@H](CCCCN)C(=O)N[C@@H](Cc1ccccc1)C(=O)N[C@@H](CC(C)C)C(=O)N[C@@H](CCCNC(=N)N)C(=O)c1nccs1) [Ac-KFLR(SEQ ID NO: 5)-kt]	330

// each binder listed below needs its IC50 of enzyme inhibition
1. LLR (N-terminal acetyl; C-terminus printed as -H) [Leupeptin (Ac-LLR-H)]
2. Ac-SKLR-kt (SMILES CC(=O)N[C@@H](CO)C(=O)N[C@@H](CCCCN)C(=O)N[C@@H](CC(C)C)C(=O)N[C@@H](CCCNC(=N)N)C(=O)c1nccs1) [Ac-SKLR(SEQ ID NO: 10)-kt]

1. 535
2. 560

// each binder listed below needs its IC50 of enzyme inhibition
1. Ac-Leu-Leu-Arg-kt [Ac-LLR-kt]
2. Ac-KHLR-{kt″} (SMILES CC(=O)N[C@@H](CCCCN)C(=O)N[C@@H](Cc1c[nH]cn1)C(=O)N[C@@H](CC(C)C)C(=O)N[C@@H](CCCNC(=N)N)C(=O)c1nccs1) [Ac-KHLR(SEQ ID NO: 2)-kt]
3. Ac-KRLR-kt (SMILES CC(=O)N[C@@H](CCCCN)C(=O)N[C@@H](CCCNC(=N)N)C(=O)N[C@@H](CC(C)C)C(=O)N[C@@H](CCCNC(=N)N)C(=O)c1nccs1) [Ac-KRLR(SEQ ID NO: 8)-kt]

1. 1480
2. 650
3. 225

The values you see were collected from patent US20180066015A1.
